- Assay Details: Drug excretion in dog cage at 3 mg/kg, po
- Format: ADME, organism-based, Canis lupus familiaris
- Measurement Context: read-out: Drug excretion
Endpoint: dose excreted (%)
Answer in %, number only, no unit symbol.

Q. Need dose excreted, item [3H][C@@]1(O)[C@@H](C(F)F)O[C@@H]2SC(NCC)=N[C@@H]2[C@H]1O
A. 1

* * *

- Assay Details: Volume of distribution at steady state in rhesus monkey at 1 mg/kg, iv or 3 mg/kg, po
- Assay type: ADME, organism-based, Macaca mulatta
- Measurement Context: in vivo, read-out: Vdss
Endpoint: Vd (L/kg)
Answer in L/kg, number only, no unit symbol.

Q. Need Vd, item CCNC1=N[C@@H]2[C@@H](O)[C@H](O)[C@@H](C(F)F)O[C@@H]2S1
A. 3.1

* * *

- Assay Details: Stability in human hepatocytes assessed as parent compound remaining at 10 uM incubated for 120 mins
- Type: ADME, cell-based, Hepatocyte
- Measurement Context: read-out: Stability
Endpoint: remaining at 2 h, 10 µM (%)
Answer in %, number only, no unit symbol.

Q. Need remaining at 2 h, 10 µM, item CCNC1=N[C@@H]2[C@@H](O)[C@H](O)[C@@H](C(F)F)O[C@@H]2S1
A. 90

* * *

- Study System: Beta-hexosaminidase subunit beta (Homo sapiens)
- Sequence (P07686 43-311 limits assumed): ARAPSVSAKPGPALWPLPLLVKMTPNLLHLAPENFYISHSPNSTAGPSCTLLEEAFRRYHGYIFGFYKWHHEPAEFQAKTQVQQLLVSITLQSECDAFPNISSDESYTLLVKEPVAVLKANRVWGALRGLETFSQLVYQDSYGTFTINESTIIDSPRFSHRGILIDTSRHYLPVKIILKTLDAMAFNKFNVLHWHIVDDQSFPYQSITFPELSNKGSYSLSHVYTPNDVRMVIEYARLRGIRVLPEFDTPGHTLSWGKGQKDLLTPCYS
- Sequence (P07686 315-556 limits assumed): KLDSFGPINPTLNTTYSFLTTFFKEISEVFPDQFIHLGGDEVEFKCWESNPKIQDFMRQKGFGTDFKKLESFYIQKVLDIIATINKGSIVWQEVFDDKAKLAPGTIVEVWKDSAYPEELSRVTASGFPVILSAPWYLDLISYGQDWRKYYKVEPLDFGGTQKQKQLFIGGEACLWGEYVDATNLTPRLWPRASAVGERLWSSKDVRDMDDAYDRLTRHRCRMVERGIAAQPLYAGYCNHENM
- Assay Details: Inhibition of human beta hexosaminidase assessed as inhibitory constant using 4-methylumbelliferyl N-acetyl-beta-D-glucosaminide dihydrate as substrate measured every 60 sec for 45 mins by fluorescence spectrophotometry
pKi: −log10 of the molar value.
Assign pKi to each entry below.

Q. Need pKi, item C=CCNC1=N[C@@H]2[C@@H](O)[C@H](O)[C@@H](CF)O[C@@H]2S1
A. < 5.00

Q. Need pKi, item CCCNC1=N[C@@H]2C[C@H](O)[C@@H](CO)O[C@@H]2S1
A. < 5.00

Q. Need pKi, item CN(C)C1=N[C@@H]2[C@@H](O)[C@H](O)[C@@H](C(F)F)O[C@@H]2S1
A. 5.41

Q. Need pKi, item CNC1=N[C@@H]2C[C@H](O)[C@@H](CO)O[C@@H]2S1
A. < 5.00

Q. Need pKi, item CCN(C)C1=N[C@@H]2[C@@H](O)[C@H](O)[C@@H](CO)O[C@@H]2S1
A. 5.44

Q. Need pKi, item CCNC1=N[C@@H]2[C@@H](F)[C@H](O)[C@@H](CO)O[C@@H]2S1
A. < 5.00

Q. Need pKi, item OC[C@H]1O[C@@H]2SC(N3CCCC3)=N[C@@H]2[C@@H](O)[C@@H]1O
A. < 5.00

Q. Need pKi, item C=CCN(C)C1=N[C@@H]2[C@@H](O)[C@H](O)[C@@H](CO)O[C@@H]2S1
A. 5.35

Q. Need pKi, item NC1=N[C@@H]2[C@@H](O)[C@H](O)[C@@H](C(F)F)O[C@@H]2S1
A. < 5.00

Q. Need pKi, item CCNC1=N[C@H]2[C@H](O[C@H](CO)C(F)[C@@H]2O)S1 (stereo not given in full)
A. < 5.00

* * *

- Assay Details: Drug excretion in dog bile at 3 mg/kg, po
- Assay type: ADME, organism-based, Canis lupus familiaris
- Measurement Context: read-out: Drug excretion
Endpoint: dose excreted (%)
Answer in %, number only, no unit symbol.

Q. Need dose excreted, item [3H][C@@]1(O)[C@@H](C(F)F)O[C@@H]2SC(NCC)=N[C@@H]2[C@H]1O
A. 8
